# Tested on: LOX IMVI melanoma
# test_method_notes: NCI-60 one-dose screen, 48 h (100 = growth as untreated, 0 = no growth, -100 = all killed)
# experimental_setup: 10 µM
Compounds without any hit were thinned out: in the full panel of roughly 83,000, 20% have a hit.
Quick list: growth per entry.
Form entry: value (%) — number only.

O=C(Nc1cccc(-n2cc(-c3ccncc3)c(-c3ccc(O)c(Cl)c3)n2)c1)c1ccc(Cl)c(Cl)c1; 53

Consider the compound shown here: O=C(c1ccc(Cl)cc1Cl)N1CCOCC1 What is its recorded growth?
96.8

Consider the compound shown here: COc1cc(-c2cc(-c3cc4c([nH]c5ccccc54)c(-c4cc(OC)c(OC)c(OC)c4)n3)cc(-c3ccccc3)n2)cc(OC)c1OC What is its recorded growth?
59.5

Consider the compound shown here: N#CCCN1C/C(=C/c2ccccc2)C(=O)/C(=C/c2ccccc2)C1 What is its recorded growth?
-65.5

Consider the compound shown here: CN1c2ccccc2[C@]2(Cc3ccccc3)Cc3ccccc3N[C@H]12 What is its recorded growth?
104
